Test: logP by HPLC on reversed-phase column (EEC Directive 79/831 Annex V.A8)
Assay type: physicochemical
Details: HPLC on reversed-phase column (C 18), 40° C., 0.1% aqueous formic acid and acetonitrile, linear gradient 10% to 90% acetonitrile
The label depends only on logP: T if it is at least 2, F if it is smaller.

CC(c1cnc(Cl)c(Cl)c1)N(C(=O)c1c(C(F)F)nn(C)c1Cl)C1CC1 (stereo not drawn)	T
Cn1nc(C(F)F)c(C(=O)NC2(c3cccs3)CCCC2)c1Cl	T
Cn1nc(C(F)F)c(C(=O)NC2(c3cccnc3)CCCC2)c1F	F
Cn1nc(C(F)F)c(C(=O)NCc2ccco2)c1F	F
Cn1nc(C(F)F)c(C(=O)N(Cc2cccnc2)C2CCCCCC2)c1Cl	F
C=CCN(Cc1csc(C)n1)C(=O)c1c(C(F)F)nn(C)c1F	T
Cc1cc(C(C)N(C(=O)c2c(C(F)F)nn(C)c2Cl)C2CC2)c(C)o1 (stereo not drawn)	T
CCN(Cc1ccc(Cl)nc1)C(=O)c1c(C(F)F)nn(C)c1Cl	T

Turning to the following compound.
**Query** # bool: logP of CCN(Cc1ccc(Cl)nc1)C(=O)c1c(C(F)F)nn(C)c1F >= 2
**Result** T
